Values were extracted from patent US20230242651A1.

- test.system: T1, human interleukin-23 receptor (IL23R) (human, UniProt Q5VWK5 24-355, limits assumed)
- T1 construct: also called human IL23R
- T1 sequence (looked up): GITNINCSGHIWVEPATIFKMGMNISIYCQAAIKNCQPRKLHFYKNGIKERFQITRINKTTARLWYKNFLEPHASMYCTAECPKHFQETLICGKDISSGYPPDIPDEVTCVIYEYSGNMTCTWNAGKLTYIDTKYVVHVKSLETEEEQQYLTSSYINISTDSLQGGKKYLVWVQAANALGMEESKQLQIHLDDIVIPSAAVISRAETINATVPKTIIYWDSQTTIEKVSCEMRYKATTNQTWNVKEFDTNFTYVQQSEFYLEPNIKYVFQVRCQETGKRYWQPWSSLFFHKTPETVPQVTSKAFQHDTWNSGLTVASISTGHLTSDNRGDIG
- procedure.details: SPR, scFv
Below, each entry is listed with its recorded koff.

{"binder": "Vκ1/VH1B consensus (uncapped), human IL23R specific scFv (scFv, scFv VL-linker-VH, made in E. coli; Vκ framework IV (uncapped, full consensus); also called Vκ1VH1B uncapped) scFv: DIQMTQSPSSLSASVGDRVTITCQASENIYSFLAWYQQKPGKAPKLLIYSASKLAAGVPSRFSGSGSGTDFTLTISSLQPEDFATYYCQQTNRYSNPDIYNVFGQGTKVEIKRGGGGSGGGGSGGGGSGGGGSQVQLVQSGAEVKKPGASVKVSCKASGIDFNSNYYMCWVRQAPGQGLEWMGCIYVGSHVNTYYANWAKGRVTMTRDTSISTAYMELSSLRSEDTAVYYCATSGSSVLYFKFWGQGTLVTVSS", "measurement.unit": "s⁻¹", "koff": 0.000413}
{"binder": "Vκ2/VH5 consensus (uncapped), human IL23R specific scFv (scFv, scFv VL-linker-VH, made in E. coli; Vκ framework IV (uncapped, full consensus); also called Vκ2VH5 uncapped) scFv: DIVMTQSPLSLPVTPGEPASISCQASENIYSFLAWYLQKPGQSPQLLIYSASKLAAGVPDRFSGSGSGTDFTLKISRVEAEDVGVYYCQQTNRYSNPDIYNVFGQGTKVEIKRGGGGSGGGGSGGGGSGGGGSEVQLVQSGAEVKKPGESLKISCKGSGIDFNSNYYMCWVRQMPGKGLEWMGCIYVGSHVNTYYANWAKGQVTISADKSISTAYLQWSSLKASDTAMYYCATSGSSVLYFKFWGQGTLVTVSS", "measurement.unit": "s⁻¹", "koff": 0.000475}
{"binder": "Vκ1/VH3 consensus λ-capped, human IL23R specific scFv (scFv, scFv VL-linker-VH, made in E. coli; also called Vκ1VH3 capped) scFv: DIQMTQSPSSLSASVGDRVTITCQASENIYSFLAWYQQKPGKAPKLLIYSASKLAAGVPSRFSGSGSGTDFTLTISSLQPEDFATYYCQQTNRYSNPDIYNVFGGGTKLTVLGGGGGSGGGGSGGGGSGGGGSEVQLVESGGGLVQPGGSLRLSCAASGIDFNSNYYMCWVRQAPGKGLEWVSCIYVGSHVNTYYANWAKGRFTISRDNSKNTLYLQMNSLRAEDTAVYYCATSGSSVLYFKFWGQGTLVTVSS", "measurement.unit": "s⁻¹", "koff": "5.43e-05"}
